B1: ZNF449 (parent)
chain: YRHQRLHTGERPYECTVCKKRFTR

Variants of: B1
PROTOCOL DESCRIPTION: protein stability index of a GFP-peptide fusion (GPS, HEK-293T) (PSI 1-6); higher = more stable;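 note: lentivirally expressed fusions sorted by FACS into six bins by GFP to DsRed ratio, PSI derived from sequencing read proportions per bin multiplied by bin number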
CONDITION SET: c terminus: a fixed tail appended
PROPERTY MEASURED: protein stability index
// no unit string in output, number only

[in] Entry `P12R` has what protein stability index?
[out] 2.98

[in] Input `R11Y`
[out] 2.76

[in] Input `G9L`
[out] 2.21

[in] Input `K19F`
[out] 2.33

[in] Input `T23D`
[out] 2.21

[in] Input `R5F`
[out] 2.49

[in] Input `Q4E`
[out] 2.3

[in] Input `T16L`
[out] 2.08
